Tested on: MALME-3M melanoma
Assay Method Text: NCI tumour cell line growth inhibition, 48 h; in the data active = GI50 below about 0.43 µM; inactive = the rest
Could you please pick one outcome from this set? label 1 (active), label 0 (inactive)

Look over these answered cases.
{"Structure Notation": "COc1ccc(Nc2c3c4c(cccc4[nH]c2=O)C(=O)c2ccccc2-3)cc1", "Assigned Class": "label 1"}
{"Structure Notation": "COc1ccc(-c2cc(-c3ccc(O)cc3)nc3nc(=S)[nH]c(N)c23)cc1", "Assigned Class": "label 0"}

# next molecule below
[ask] Assay result, entry COc1ccc(-c2cn(-c3ccc(Cl)cc3)c(=S)[nH]2)cc1OC — outcome?
[reply] label 0

---

Test system: RPMI-8226 leukemia
Assay Method Text: NCI tumour cell line growth inhibition, 48 h
Measurement Name: TGI

[ask] For CN(C)c1ccc(/C=C(\C#N)c2cc3ccccc3n2C)cc1 , what is its reported TGI?
[reply] > 100 µM
